Assign enrichment ratio to each entry below.
B1: PhoQ; a variant is named by its letters at X, in order, P23837 (parent)
chain: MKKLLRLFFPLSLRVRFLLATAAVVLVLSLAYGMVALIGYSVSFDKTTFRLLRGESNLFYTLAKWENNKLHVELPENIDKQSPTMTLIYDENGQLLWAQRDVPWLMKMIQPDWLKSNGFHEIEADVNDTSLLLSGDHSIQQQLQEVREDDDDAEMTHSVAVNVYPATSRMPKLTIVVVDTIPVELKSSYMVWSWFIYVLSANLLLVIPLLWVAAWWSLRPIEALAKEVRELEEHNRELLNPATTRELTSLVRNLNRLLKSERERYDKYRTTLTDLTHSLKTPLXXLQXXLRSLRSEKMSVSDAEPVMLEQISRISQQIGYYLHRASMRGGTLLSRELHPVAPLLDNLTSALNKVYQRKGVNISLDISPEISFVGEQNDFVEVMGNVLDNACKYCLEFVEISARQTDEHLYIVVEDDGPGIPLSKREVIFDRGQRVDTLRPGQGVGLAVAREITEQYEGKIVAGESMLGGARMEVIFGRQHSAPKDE

- Variants of: B1
- assay-explanation: enrichment ratio after two sorts for PhoP signalling (ratio (wild type AVST 3.29)); higher = more functional
- experimental-conditions: with PhoP (E. coli)
Over roughly 140,000 sequences, “enrichment ratio after two sorts for PhoP signalling” has its median near 0; the highest 2% begin near 11. The list comes from a sample in which the highest values are over-represented; it also holds close analogues and randomly drawn sequences.

HPLN :: ≤ 0.25
PWGS :: ≤ 0.25
YALF :: 3.8
QRDR :: ≤ 0.25
MADQ :: ≤ 0.25

Record enrichment ratio per entry; entries follow.
1. TESF
2. DELY
3. HPCD
4. HLNC
5. FALA
6. ATNF

**Result**
11.5
≤ 0.25
≤ 0.25
≤ 0.25
5.9
20.9

Record enrichment ratio per entry; entries follow.
1. SLNF
2. CLCS
3. PQRH

**Result**
1.82
≤ 0.25
≤ 0.25

Record enrichment ratio per entry; entries follow.
1. RETI
2. NELC
3. AQWL
4. FPVD
5. LNHQ
6. VYHA
7. TNLA
8. YVPF

**Result**
["≤ 0.25", 5.14, "≤ 0.25", "≤ 0.25", "≤ 0.25", "≤ 0.25", 8.08, "≤ 0.25"]

Record enrichment ratio per entry; entries follow.
1. HPLH
2. ERDP
3. VGFY
4. QKIT

**Result**
≤ 0.25
≤ 0.25
≤ 0.25
≤ 0.25

Record enrichment ratio per entry; entries follow.
1. WFYE
2. CTNF
3. LYYP
4. MPPF
5. GESF
6. AACL
7. WQHV
8. YKMG

**Result**
1. ≤ 0.25
2. ≤ 0.25
3. ≤ 0.25
4. ≤ 0.25
5. 0.55
6. 11.3
7. ≤ 0.25
8. ≤ 0.25

Record enrichment ratio per entry; entries follow.
1. SCNF
2. ANNF
3. TELC
4. SAAG
5. MNPT

**Result**
1. 14.3
2. 12.9
3. 11.4
4. 14.1
5. ≤ 0.25

Record enrichment ratio per entry; entries follow.
1. VGRD
2. KMVF
3. RGIA
4. INLE
5. TSLI
6. IHIG
7. AINF

**Result**
≤ 0.25
≤ 0.25
≤ 0.25
≤ 0.25
11.8
≤ 0.25
1.66

Record enrichment ratio per entry; entries follow.
1. ELMG
2. IQLY
3. PMHP
4. NQTP
5. YGYC
6. TPRP

**Result**
1: ≤ 0.25; 2: ≤ 0.25; 3: ≤ 0.25; 4: ≤ 0.25; 5: ≤ 0.25; 6: ≤ 0.25
